The reported numbers originate from ChEMBL document CHEMBL4304836.

Test system: Escherichia coli
assay_details: Antibacterial activity against Escherichia coli ATCC 25922 assessed as reduction in bacterial cell growth incubated for 24 hrs by two fold serial dilution
Format: functional
measurement_setup: ATCC 25922, 24 h
Entries and their MIC

molecule | MIC
CS(=N)(=O)c1ccccc1 (stereo unspecified) | > 512 µg/mL
O=S(=NC(F)(F)F)(c1ccccc1)c1ccccc1 | > 512 µg/mL
O=[N+]([O-])c1ccc(S(=O)(=NSC(F)(F)F)N2CCOCC2)cc1 (stereo unspecified) | 128 to 256 µg/mL
CS(=O)(=NC(F)(F)F)c1ccccc1 (stereo unspecified) | > 512 µg/mL
Cc1ccc(S(=O)(=NSC(F)(F)F)N2CCCC2)cc1 (stereo unspecified) | > 512 µg/mL

API: the following record is the query input.
Prompt: What does the record list as MIC for O=[N+]([O-])c1ccc(S(=O)(=NSC(F)(F)F)N2CCCC2)cc1 (stereo unspecified) ?
Response: > 512 µg/mL
